Provenance of the data: patent US11795460B2

Known Avg % Insert of a selection of sequences
System: TTR
Experiment: TTR editing in primary human hepatocytes transfected with Spy Cas9 mRNA and dgRNAs (Table 9)
Format: cell-based
Conditions: dgRNA co-transfected with Spy Cas9 mRNA (SEQ ID NO:2)

>  <Sequence string>
GCGGCGGGGGCCGGAGUCGU (tested as dual guide RNA, chemistry not given here) [CR003374]

>  <Output unit>
%

>  <Avg % Insert>
0.27

$$$$
>  <Sequence string>
AAAGGCUGCUGAUGACACCU (tested as dual guide RNA, chemistry not given here) [CR003353]

>  <Output unit>
%

>  <Avg % Insert>
49.50

$$$$
>  <Sequence string>
GCCGUGGUGGAAUAGGAGUA (tested as dual guide RNA, chemistry not given here) [CR003387]

>  <Output unit>
%

>  <Avg % Insert>
7.80

$$$$
>  <Sequence string>
UGGACUGGUAUUUGUGUCUG (tested as dual guide RNA, chemistry not given here) [CR003340]

>  <Output unit>
%

>  <Avg % Insert>
1.83

$$$$
>  <Sequence string>
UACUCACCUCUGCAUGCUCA (tested as dual guide RNA, chemistry not given here) [CR003372]

>  <Output unit>
%

>  <Avg % Insert>
1.13

$$$$
>  <Sequence string>
UGUAGAAGGGAUAUACAAAG (tested as dual guide RNA, chemistry not given here) [CR003365]

>  <Output unit>
%

>  <Avg % Insert>
20.23

$$$$
>  <Sequence string>
ACCUCUGCAUGCUCAUGGAA (tested as dual guide RNA, chemistry not given here) [CR003371]

>  <Output unit>
%

>  <Avg % Insert>
2.67

$$$$
